These data points were gathered from PubChem BioAssay AID1963839.

Would you kindly list IC50 for each of these molecules?
System: 817829-284-R-J1-PDC complex spheroid viability;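 further: spheroids exposed to compounds for 7 days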
Test: Anticancer human tumor 817829-284-R-J1-PDC patient-derived colon adenocarcinoma cell line growth inhibition [POLQ]
Conditions: curve of first compound; second compound 0.0316 µM
Answers are plain numbers, in nM.

Molecule | Endpoint Value
CC[C@@]1(O)C(=O)OCc2c1cc1n(c2=O)Cc2cc3c(CN(C)C)c(O)ccc3nc2-1 + Nc1ccc(C#CCN(C(=O)Cc2ncc(C(F)(F)F)cc2C(F)(F)F)c2ccc(F)cc2)nn1 | 8.46

Record O=c1[nH]cc(F)c(=O)[nH]1 + Cc1cccc(N(C)C(=O)C2C(O)CCN2c2nc(C)cc(C(F)(F)F)c2C#N)c1 . Reported IC50: 1980
